# MEASUREMENT_DESCRIPTION: soluble fraction after stress (log2 fold change); higher = more stays soluble; pooled small domains, quantitative proteomics
# ASSAY_SETUP: stress: pH 4
OUTCOME_MEASURE: soluble fraction (log2)
A bare number is all that is needed in reply.

>>> readout_value("HMTLPEKSKRLFSQDDFWDQIFYRIGEGQSLREVSKYYKIPYTTIHDRIHSDEGIKLKYLEALTS")
-0.592

So what's the measured soluble fraction (log2) for this one? `HMADIWDLLRSEYKLTETDVRMLTDMLPDELMNDFRSEVLALRDRMNRYKVNNPKSYVVTSLKNFIIQHTP` -0.787

What do you have for `HMLSDEDMMELAIIENLQRENLNPIEEARAYESLIDKGFTHTEIADKMGKSRPYISNSIRLLSL` ? -1.38

What do you have for `HMKAMIIVMKPGADMATISKVLKTIETNGFKPHLSKGEETTVIGVIGDERKLNPDIFSTLEGVERIVPVA` ? 0.279

What do you have for `HMNDLKEDTITVQSVEYIDSDDGTMVYIKDTNHQVYKQAFKEDESLIRISAGDVLHVKYQPMDNEIHLL` ? -2.07

What do you have for `HMENKTGEVTVREDSALTLRQGPGTNYEKVGQAYRGDRVDVLEEQNGWYKVKTYDGKEAWASSSYISIV` ? -0.0485

What do you have for `HMEETLRALAKKISEKVLKSGRSTTLEPMNPYERRIIHSAVSEIEGVSSKSVGEEPYRKVVISSDNP` ? -0.0148

What do you have for `HMIVVMKTSASERDLQEVIARIEQFGFATRSIVGSERATVSVLGAPLPDSLQEALERMPGVEEVVRITK` ? -0.0559

What do you have for `HMIQLKEHDVVRLRETIVENDEKIPAGTRGVVLSVYDGGRAFAVEVADDRAASAIITAFRDQLEVY` ? -0.0481

What do you have for `HMQTEFVISSGEQPKRLDVFLLQREPYLSRAALQRMIAAGWVRVNNHLAKSSQRIKAGDVIVFD` ? 0.0697

What do you have for `HMARDSYNGVQRTISTLLGQGNYDRAYDVAVGARGQMSKQQWSDVAKRIYEVSGIKIDDSVKY` ? -0.0224

What do you have for `HMTPDGNATVWSANGYGVRLRTGPGKGYAIIGVYSVGTTVKVLERGPAGGWDHIQVGSRVGYMMNEFLHYY` ? 0.422

What do you have for `HMGFAEFWLAYPKKVGKGEAERKWKTLKPDAGAVLSAVKRQSASEQWRKDGGRYIPNPATWLHQRRWE` ? 0.243

What do you have for `HMYSLSELERIKNFLTGYMSDYSIMMLDANEITNQVDISLKDYSDDNIESIKAAVLSHGGKTDYLNFIDDS` ? -1.01

What do you have for `HMAAIPATVDEETYRRLKPMLKQYGILYHEFKPLRSGKKGAVELIFMEKDLALVQELLSRLKKEK` ? -0.0159

What do you have for `HMDTNKMLIVNSISNGMKRLQELQDPQLAEIQKTFSGLDEQKATSAQLAQINNIINNRIAEIEG` ? 0.191

What do you have for `HMTTGEIIQRERTRLGLSQEKLAEQVGVSRQAVSKWELGDAVPDTDKLVPLARTLGISVDTLLD` ? 0.0499

Data provenance is the domain aggregation screens of Martell et al. (2025).
